target: HLA-B*15:17; assay: IEDB peptide-MHC binding, purified MHC/direct/fluorescence; filed as Kd, often an IC50 or EC50 that approximates it; bounds were set here for any values at or beyond the usual limits of such assays; conditions: source organism: Giardia lamblia ATCC 50803
parameter: Kd (nM)
Numbers only, in nM.

Request: For the sequence shown here, `ITASKDLCF` , give the reported Kd.
Response: 2.8

---

biological target: HLA-A*02:03; assay: IEDB peptide-MHC binding, purified MHC/competitive/fluorescence; filed as Kd, often an IC50 or EC50 that approximates it; bounds were set here for any values at or beyond the usual limits of such assays; conditions: source organism: Vibrio parahaemolyticus K5030
parameter: Kd

Request: For the sequence shown here, `AGGWVLWKV` , give the reported Kd.
Response: ≥ 20 µM

---

target: HLA-A*03:01; assay: IEDB peptide-MHC binding, purified MHC/competitive/radioactivity; filed as Kd, often an IC50 or EC50 that approximates it; bounds were set here for any values at or beyond the usual limits of such assays; settings: source organism: Lassa virus GA391
pKd: −log10 of the molar value.
parameter: pKd

Request: For the sequence shown here, `ENAVWDQFK` , give the reported pKd.
Response: ≤ 4.50

---

target: HLA-A*26:02; assay: IEDB peptide-MHC binding, purified MHC/competitive/fluorescence; filed as Kd, often an IC50 or EC50 that approximates it; bounds were set here for any values at or beyond the usual limits of such assays; conditions: source organism: Variola virus
parameter: Kd

Request: For the sequence shown here, `SSDDIPPRW` , give the reported Kd.
Response: ≥ 20 µM

---

target: HLA-A*33:01; experiment: IEDB peptide-MHC binding, purified MHC/competitive/radioactivity; filed as Kd, often an IC50 or EC50 that approximates it; bounds were set here for any values at or beyond the usual limits of such assays; conditions: source organism: Dengue virus 3 Sri Lanka/1266/2000
parameter: Kd (nM)
Answers are plain numbers, in nM.

Request: For the sequence shown here, `EFWKLVDRER` , give the reported Kd.
Response: 2.92

---

molecular target: HLA-B*15:01; test: IEDB peptide-MHC binding, purified MHC/competitive/fluorescence; filed as Kd, often an IC50 or EC50 that approximates it; bounds were set here for any values at or beyond the usual limits of such assays; conditions: source organism: Vaccinia virus WR
parameter: Kd (nM)
One number for each entry, in nM.

Request: For the sequence shown here, `ITMVNSLTY` , give the reported Kd.
Response: 228

---

target: HLA-B*15:17; assay: IEDB peptide-MHC binding, purified MHC/competitive/fluorescence; filed as Kd, often an IC50 or EC50 that approximates it; bounds were set here for any values at or beyond the usual limits of such assays; conditions: source organism: Fowlpox virus
parameter: Kd

Request: // lookup Kd | system=HLA-B*15:17 | key= `VIMWYNYLF`
Response: ≥ 20 µM

---

molecular target: HLA-B*45:01; experiment: IEDB peptide-MHC binding, purified MHC/competitive/radioactivity; filed as Kd, often an IC50 or EC50 that approximates it; bounds were set here for any values at or beyond the usual limits of such assays; conditions: source organism: Lymphocytic choriomeningitis virus (strain Armstrong)
parameter: pKd
Give bare numbers, as −log10 of the molar value.

Request: For the sequence shown here, `EDQLLPFMS` , give the reported pKd.
Response: 5.43

Sourced from the Immune Epitope Database (IEDB)
